test: Half life in rat; format: ADME, organism-based; settings: in vivo
OBSERVABLE: half-life

>>> result("Cc1noc(C)c1-c1ccc(-c2nc(C)c([C@H](OC(C)(C)C)C(=O)O)c(-c3ccc(Cl)cc3)c2C)cc1")
"8.9 h"

* * *

assay: Apparent permeability in human Caco2 cells; format: ADME, cell-based; conditions: Caco-2
OBSERVABLE: Papp (×10⁻⁶ cm/s)

>>> quantitative_result("Cc1noc(C)c1-c1ccc(-c2nc(C)c([C@H](OC(C)(C)C)C(=O)O)c(-c3ccc(Cl)cc3)c2C)cc1")
17

These data points were gathered from ChEMBL document CHEMBL3286143.
